- Tested Target: α2C receptor (Homo sapiens)
- Construct: host or cells: LM(tk-) cells, line L-α2C
- Sequence (P18825 1-462): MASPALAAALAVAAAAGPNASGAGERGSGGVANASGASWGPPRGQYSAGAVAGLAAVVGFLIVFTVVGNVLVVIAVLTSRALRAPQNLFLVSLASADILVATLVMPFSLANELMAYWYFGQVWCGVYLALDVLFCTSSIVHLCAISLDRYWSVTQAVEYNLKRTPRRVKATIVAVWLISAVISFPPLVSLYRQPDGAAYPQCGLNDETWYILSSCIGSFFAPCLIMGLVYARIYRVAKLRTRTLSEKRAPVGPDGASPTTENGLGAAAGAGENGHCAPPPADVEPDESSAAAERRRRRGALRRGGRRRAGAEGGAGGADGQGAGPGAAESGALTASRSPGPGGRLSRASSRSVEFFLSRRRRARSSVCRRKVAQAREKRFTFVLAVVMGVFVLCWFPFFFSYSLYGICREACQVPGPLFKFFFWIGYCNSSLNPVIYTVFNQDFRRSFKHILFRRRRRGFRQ
- Assay Remarks: Competition binding, [3H]rauwolscine, human α2C receptor
- Run Parameters: [3H]rauwolscine, human α2C receptor, LM(tk−) cells; read-out: pKi alpha-2 2c (converted)
Counter-ions that a name gives are not always drawn.
Task for the reader: assign each of the following molecules its reported Ki.
Numbers only, in nM.

Recorded Ki, per entry:
- Molecule: "COc1ccccc1N1CCN(CCCNC(=O)C2=C(C)NC(C)=C(C(N)=O)C2c2ccc([N+](=O)[O-])cc2)CC1 (stereo not drawn)"
  Measurement Type: "Ki"
  Observed Result: 44.7
- Molecule: "CCC1=C(C(N)=O)C(c2ccc([N+](=O)[O-])cc2)C(C(=O)NCCCN2CCC(C)(c3ccccc3)CC2)=C(CC)N1 (stereo not drawn) [Example 106, hydrochloride hydrate]"
  Measurement Type: "Ki"
  Observed Result: 295

Turning to the following molecule.
Ask: Param readout= Ki; system= α2C receptor (Homo sapiens); entry= CCC1=C(C(N)=O)C(c2ccc([N+](=O)[O-])cc2)C(C(=O)NCCCN2CCN(c3ccccc3)CC2)=C(CC)N1 (stereo not drawn) [Example 104, hydrochloride hydrate] ; returns value.
Reply: 15.8

----------
- Tested Target: α1A Human Adrenergic Receptor (Homo sapiens, UniProt P25100)
- Construct: The entire coding region of α1A (1719 bp); expressed in transfected cells
- Sequence (P25100 whole entry): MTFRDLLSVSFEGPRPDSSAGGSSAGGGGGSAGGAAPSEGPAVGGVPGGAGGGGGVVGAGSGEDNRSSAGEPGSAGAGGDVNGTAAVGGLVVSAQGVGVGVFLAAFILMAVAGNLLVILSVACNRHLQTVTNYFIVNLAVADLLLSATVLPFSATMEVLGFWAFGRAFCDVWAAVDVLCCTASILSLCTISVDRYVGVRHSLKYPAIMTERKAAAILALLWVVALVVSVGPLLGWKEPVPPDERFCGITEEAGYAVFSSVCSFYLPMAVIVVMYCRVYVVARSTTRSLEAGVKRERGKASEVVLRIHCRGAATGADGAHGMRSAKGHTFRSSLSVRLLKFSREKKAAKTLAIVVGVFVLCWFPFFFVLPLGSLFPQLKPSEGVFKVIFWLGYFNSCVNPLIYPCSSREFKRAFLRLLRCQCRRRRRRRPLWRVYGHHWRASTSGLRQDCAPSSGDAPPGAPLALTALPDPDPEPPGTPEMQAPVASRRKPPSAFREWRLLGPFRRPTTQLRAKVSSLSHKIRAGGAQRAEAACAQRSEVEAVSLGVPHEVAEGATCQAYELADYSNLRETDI
- Assay Remarks: Radioligand binding, [3H]prazosin, cloned human α1A adrenergic receptor
- Method: The protocols for these experiments are given below. These cell lines were prepared by transfecting the cloned cDNA or cloned genomic DNA or constructs containing both genomic DNA and cDNA encoding the human α-adrenergic receptors as follows: α1A Human Adrenergic Receptor: […] Transfected cells from culture flasks were scraped into 5 ml of 5 mM Tris-HCl, 5 mM EDTA, pH 7.5, and lysed by sonication. […] Nonspecific binding was determined in the presence of 10 μM phentolamine. […]
Measurement Type: pKi alpha-1 1a
One number for each entry.

Reference set (3 entries):
- Molecule: "CNC(=O)C1=C(C)NC(C)=C(C(=O)NCCCN2CCC(c3ccccc3)(c3ccccc3)CC2)C1c1ccc([N+](=O)[O-])cc1 (racemic) [(±)-119]"
  pKi alpha-1 1a: 6.21
- Molecule: "CNC(=O)C1=C(C)NC(C)=C(C(=O)NCCCN2CCC(c3ccccc3)(c3ccccc3)CC2)C1c1ccc([N+](=O)[O-])cc1 (stereo not shown) [Example 38]"
  pKi alpha-1 1a: 6.21
- Molecule: "CC1=C(C(N)=O)C(c2ccc([N+](=O)[O-])cc2)C(C(=O)NCCCN2CCC(c3ccccc3)(c3ccccc3)CC2)=C(C)N1 (single isomer, unassigned; (-)) [(−)-2]"
  pKi alpha-1 1a: 6.46

Ask: Find the recorded pKi alpha-1 1a belonging to CC1=C(C(N)=O)C(c2ccc([N+](=O)[O-])cc2)C(C(=O)NCCCN2CCC(c3ccccc3)(c3ccccc3)CC2)=C(C)N1 (racemic) [(±)-2] and report it.
Reply: 6.22
